Item-by-item account of Relative activity (%)
target: UniProtKB A0ABP2I6X2; assay: Effect of several substances added on the enzyme activity; assay type: biochemical, Aerococcus viridans IFO-12317; details: 5 mM of the substance added instead of MgCl2 in the assay system; enzyme from IFO-12317; MgCl2 = 100
Report the value in % with no unit label.

[[record]]
mol_smiles = "[Ba+2].[Cl-].[Cl-]"
measurement = 28.8

[[record]]
mol_smiles = "[Cl][Mn][Cl]"
measurement = 111.0

[[record]]
mol_smiles = "[Cl-].[Cl-].[Zn+2]"
measurement = 22.8


Requested field: Relative activity (%). Item: [Cl-].[Cl-].[Co+2]
84.0

Please give the result for [Ca+2].[Cl-].[Cl-] too.
78.7

Would you mind doing [Cl-].[Cl-].[Mg+2] as well?
100

---

system: pyruvate oxidase (B-0668); assay: Effect of several substances added on the enzyme activity; format: biochemical, Streptococcus sp. B-0668; conditions: 5 mM of the substance added instead of MgCl2 in the assay system; enzyme from B-0668; MgCl2 = 100
hey, just use Satisfied if measured Relative activity (%) is less than 80%, otherwise Not satisfied

Solved cases (5 shown):
[[record]]
compound = "O=C(O)CN(CCN(CC(=O)O)CC(=O)O)CC(=O)O [EDTA, ethylene-diaminetetraacetic acid]"
class = "Satisfied"

[[record]]
compound = "[Cl-].[Cl-].[Mg+2] [MgCl2]"
class = "Not satisfied"

[[record]]
compound = "[Ca+2].[Cl-].[Cl-] [CaCl2]"
class = "Satisfied"

[[record]]
compound = "[Cl-].[Cl-].[Zn+2] [ZnCl2]"
class = "Satisfied"

[[record]]
compound = "[Cl][Mn][Cl] [MnCl2]"
class = "Not satisfied"


Now for a further compound.
# strict comparison: is reported Relative activity (%) < 80%? input = [Ba+2].[Cl-].[Cl-] [BaCl2]
Satisfied

---

target: pyruvate oxidase (IFO-12219) (Aerococcus viridans); test: Effect of several substances added on the enzyme activity; format: biochemical, Aerococcus viridans IFO-12219; conditions: 5 mM of the substance added instead of MgCl2 in the assay system; enzyme from IFO-12219; MgCl2 = 100
Sequence (A0ABP2I6X2 1-592): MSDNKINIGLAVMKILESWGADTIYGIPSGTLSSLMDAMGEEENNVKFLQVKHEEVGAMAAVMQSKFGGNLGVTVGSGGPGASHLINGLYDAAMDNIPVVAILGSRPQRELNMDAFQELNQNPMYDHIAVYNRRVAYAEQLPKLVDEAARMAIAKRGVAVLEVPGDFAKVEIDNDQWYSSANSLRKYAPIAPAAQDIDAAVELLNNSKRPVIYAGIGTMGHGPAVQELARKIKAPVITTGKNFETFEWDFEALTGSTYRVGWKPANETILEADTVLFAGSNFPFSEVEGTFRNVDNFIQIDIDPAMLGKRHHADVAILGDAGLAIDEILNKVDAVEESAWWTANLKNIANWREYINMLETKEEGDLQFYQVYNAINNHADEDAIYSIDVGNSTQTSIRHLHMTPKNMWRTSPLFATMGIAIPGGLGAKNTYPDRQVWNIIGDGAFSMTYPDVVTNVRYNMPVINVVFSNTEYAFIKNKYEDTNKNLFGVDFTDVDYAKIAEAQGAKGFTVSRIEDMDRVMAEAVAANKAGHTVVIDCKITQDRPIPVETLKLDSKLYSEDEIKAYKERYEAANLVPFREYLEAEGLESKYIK
The entries below are paired with their reported Relative activity (%).
The answer is to be given in %; state only the numeric part.

In the examples that follow, each entry is paired with its recorded Relative activity (%).
[[record]]
mol_smiles = "[Cl-].[Cl-].[Zn+2]"
measurement_target = "pyruvate oxidase (IFO-12219) (Aerococcus viridans)"
endpoint_label = "Relative activity (%)"
value_unit = "%"
measurement = 14.9

[[record]]
mol_smiles = "[Cl][Mn][Cl]"
measurement_target = "pyruvate oxidase (IFO-12219) (Aerococcus viridans)"
endpoint_label = "Relative activity (%)"
value_unit = "%"
measurement = 116.2

[[record]]
mol_smiles = "[Cl-].[Cl-].[Mg+2]"
measurement_target = "pyruvate oxidase (IFO-12219) (Aerococcus viridans)"
endpoint_label = "Relative activity (%)"
value_unit = "%"
measurement = 100

[[record]]
mol_smiles = "[Cl-].[Cl-].[Co+2]"
measurement_target = "pyruvate oxidase (IFO-12219) (Aerococcus viridans)"
endpoint_label = "Relative activity (%)"
value_unit = "%"
measurement = 85.0

[[record]]
mol_smiles = "[Ba+2].[Cl-].[Cl-]"
measurement_target = "pyruvate oxidase (IFO-12219) (Aerococcus viridans)"
endpoint_label = "Relative activity (%)"
value_unit = "%"
measurement = 23.9


Param item = [Ca+2].[Cl-].[Cl-] ; retrieve measured Relative activity (%).
83.4

Try O=C(O)CN(CCN(CC(=O)O)CC(=O)O)CC(=O)O next.
0

---

system: pyruvate oxidase (B-0667); experiment: Effect of several substances added on the enzyme activity; assay type: biochemical, Pediococcus sp. B-0667; conditions: 5 mM of the substance added instead of MgCl2 in the assay system; enzyme from B-0667; MgCl2 = 100
# reported Relative activity (%); entries follow
Numeric answer only, unit % assumed.

These recorded examples may help you get a feel for the data.
[[record]]
mol_smiles = "[Cl][Mn][Cl]"
measurement = 129.1

[[record]]
mol_smiles = "[Cl-].[Cl-].[Zn+2]"
measurement = 16.0

[[record]]
mol_smiles = "[Cl-].[Cl-].[Co+2]"
measurement = 81.3

[[record]]
mol_smiles = "O=C(O)CN(CCN(CC(=O)O)CC(=O)O)CC(=O)O"
measurement = 0

[[record]]
mol_smiles = "[Ca+2].[Cl-].[Cl-]"
measurement = 69.4


Which Relative activity (%) value belongs to [Ba+2].[Cl-].[Cl-] ?
20.6

// same read-out, input: [Cl-].[Cl-].[Mg+2]
100
